# System: K-562 leukemia
# procedure.details: NCI tumour cell line growth inhibition, 48 h; in the data active means GI50 below about 0.43 µM; inactive means the rest
Outcome codes: 1 (yes) for active, 0 (no) for inactive

>>> qualitative_label("Cn1c(-c2nonc2N)nc2cnccc21")
"0 (no)"
>>> qualitative_label("O=C1c2ccccc2C(=O)c2c1ccc1[nH]c(CCl)nc21")
"0 (no)"
>>> qualitative_label("COc1ccc(-n2cc(-c3ccc(OC)c(OC)c3)[nH]c2=S)cc1Cl")
"0 (no)"
>>> qualitative_label("N#Cc1nc(-c2ccc(F)cc2)oc1S(=O)(=O)N1CCOCC1")
"0 (no)"
>>> qualitative_label("O=c1c(Cl)c(Cl)cnn1-c1ccccc1")
"0 (no)"
>>> qualitative_label("COc1cc([C@@H]2c3cc4c(cc3C[C@H]3COC(=O)[C@@H]32)OCO4)cc(OC)c1OC")
"1 (yes)"
